Listed here are molecules together with their documented LD50.
# measurementProtocol: Acute toxicity determined after intravenal administration in mice
# Assay type: organism-based
# setupConditions: mouse, in vivo, iv

# molecule, LD50 [mg/kg]
measured = [
    ("CC1(C)C=C(C(=O)NCCCNCc2ccco2)C(C)(C)N1", 34),
    ("CC1(C)C=C(C(=O)NCC(O)CNC(=O)C(C)(C)Oc2ccc(Cl)cc2)C(C)(C)N1 (stereo not drawn)", 69),
    ("CC1(C)C=C(C(=O)NCCCNC(=O)c2ccc3c(c2)OCO3)C(C)(C)N1", 76),
]

---

# System: Rattus norvegicus
# measurementProtocol: Incidence of arrhythmias in rats after a intravenal administration at 4 mg/kg, expressed as no. of positive cases out of no. of tested cases (10)
# Assay type: functional
The following compounds are shown together with reported No. of positive cases values.
measuredEndpoint: No. of positive cases

# compound, subjectOfTest, measuredEndpoint, recordedMeasurement
data = [
    ("C=CCOc1ccc(CNCCCNC(=O)C2=CC(C)(C)NC2(C)C)cc1OC", "Rattus norvegicus", "No. of positive cases", 10),
    ("COc1cc(OCc2ccccc2)ccc1CNCCCNC(=O)C1=CC(C)(C)NC1(C)C", "Rattus norvegicus", "No. of positive cases", 10),
    ("CC1(C)C=C(C(=O)NCCN2C(=O)C3CCCCC3C2=O)C(C)(C)N1 (centres undefined)", "Rattus norvegicus", "No. of positive cases", 0),
    ("Cc1cccc(C)c1NC(=O)C(C)NCCCNC(=O)C1=CC(C)(C)NC1(C)C (centres undefined)", "Rattus norvegicus", "No. of positive cases", 10),
    ("CC1(C)C=C(C(=O)NCCCNC(=O)CSc2ccccc2)C(C)(C)N1", "Rattus norvegicus", "No. of positive cases", 7),
    ("CC1(C)C=C(C(=O)NCCNC(=O)C(C)(C)Oc2ccc(Cl)cc2)C(C)(C)N1", "Rattus norvegicus", "No. of positive cases", 0),
    ("CC1(C)C=C(C(=O)NCCCN2C(=O)C3CCCCC3C2=O)C(C)(C)N1 (centres undefined)", "Rattus norvegicus", "No. of positive cases", 0),
    ("CC1(C)C=C(C(=O)NCCNC(=O)c2cccs2)C(C)(C)N1", "Rattus norvegicus", "No. of positive cases", 3),
    ("CC1(C)C=C(C(=O)NCCCNCc2ccccc2O)C(C)(C)N1", "Rattus norvegicus", "No. of positive cases", 7),
    ("CC1(C)C=C(C(=O)NCCNC(=O)COc2ccc(Cl)cc2Cl)C(C)(C)N1", "Rattus norvegicus", "No. of positive cases", 4),
    ("CN(Cc1ccccc1)C(=O)C1=CC(C)(C)NC1(C)C", "Rattus norvegicus", "No. of positive cases", 1),
    ("Cc1cccc(C)c1NC(=O)C(C)NC(=O)C1=CC(C)(C)NC1(C)C (centres undefined)", "Rattus norvegicus", "No. of positive cases", 10),
    ("CC1(C)CC(C(=O)NCCCN2C(=O)c3ccccc3C2=O)C(C)(C)N1 (centres undefined)", "Rattus norvegicus", "No. of positive cases", 10),
    ("CCc1nc2ccccc2c(=O)n1CCNC(=O)C1=CC(C)(C)NC1(C)C", "Rattus norvegicus", "No. of positive cases", 10),
]
